B1: 2K2A (parent)
chain: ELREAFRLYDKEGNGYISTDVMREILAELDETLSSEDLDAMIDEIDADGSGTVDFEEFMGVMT

Variants of: B1
TEST METHOD NOTES: folding stability dG (cDNA display proteolysis); higher = more stable
MEASUREMENT CONTEXT: PBS, room temperature
Catalogue of folding stability dG values
# output: bare number, implied unit kcal/mol

>>> print(df.to_string())
   mutant_designation  value_reported
0                 A5G               1
1                L29Y            1.92

Could you now consider this next variant?
I'd like to know its folding stability dG. The variant in question is T32E
1.48
